pIC50 reference
target: Mitogen-activated protein kinase kinase kinase 5 (Homo sapiens); experiment: Inhibition of stress-activated full length recombinant human N-terminal GST-tagged ASK1 expressed in baculovirus expression system using MKK6 as substrate pretreated for 10 mins followed by substrate addition by Alphascreen assay
Sequence (Q99683 whole entry): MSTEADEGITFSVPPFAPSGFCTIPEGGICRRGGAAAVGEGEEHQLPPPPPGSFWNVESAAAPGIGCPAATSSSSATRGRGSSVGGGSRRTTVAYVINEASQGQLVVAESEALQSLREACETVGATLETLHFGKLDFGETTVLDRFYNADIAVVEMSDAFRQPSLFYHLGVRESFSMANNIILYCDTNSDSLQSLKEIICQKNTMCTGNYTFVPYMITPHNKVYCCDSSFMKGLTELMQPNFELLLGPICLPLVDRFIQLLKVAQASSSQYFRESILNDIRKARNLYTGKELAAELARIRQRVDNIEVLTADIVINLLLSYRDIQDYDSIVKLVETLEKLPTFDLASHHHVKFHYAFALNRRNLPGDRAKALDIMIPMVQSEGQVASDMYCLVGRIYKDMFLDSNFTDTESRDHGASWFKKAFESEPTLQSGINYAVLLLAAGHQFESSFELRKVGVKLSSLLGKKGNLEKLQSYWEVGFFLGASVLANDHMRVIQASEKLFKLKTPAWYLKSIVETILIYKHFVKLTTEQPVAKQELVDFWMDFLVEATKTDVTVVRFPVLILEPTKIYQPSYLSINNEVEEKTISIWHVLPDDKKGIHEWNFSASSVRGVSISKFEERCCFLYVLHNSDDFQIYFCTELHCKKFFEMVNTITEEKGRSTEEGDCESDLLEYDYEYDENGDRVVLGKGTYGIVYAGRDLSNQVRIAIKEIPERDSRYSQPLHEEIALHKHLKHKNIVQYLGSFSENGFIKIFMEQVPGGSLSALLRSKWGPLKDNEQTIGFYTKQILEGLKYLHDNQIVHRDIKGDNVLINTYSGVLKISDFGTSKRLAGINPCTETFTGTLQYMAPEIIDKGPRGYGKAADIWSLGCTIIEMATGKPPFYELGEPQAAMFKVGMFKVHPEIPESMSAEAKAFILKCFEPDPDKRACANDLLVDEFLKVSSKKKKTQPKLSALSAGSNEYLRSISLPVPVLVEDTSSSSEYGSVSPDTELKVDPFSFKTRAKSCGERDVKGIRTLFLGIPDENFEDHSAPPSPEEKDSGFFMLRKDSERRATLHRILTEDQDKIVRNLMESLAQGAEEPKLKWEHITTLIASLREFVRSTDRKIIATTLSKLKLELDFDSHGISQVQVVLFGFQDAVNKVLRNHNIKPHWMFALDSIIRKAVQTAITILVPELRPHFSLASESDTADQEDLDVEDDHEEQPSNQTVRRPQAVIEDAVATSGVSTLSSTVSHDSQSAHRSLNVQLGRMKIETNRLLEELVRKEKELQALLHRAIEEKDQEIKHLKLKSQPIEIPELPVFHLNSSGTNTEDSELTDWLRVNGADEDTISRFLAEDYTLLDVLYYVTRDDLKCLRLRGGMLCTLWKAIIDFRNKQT
pIC50: −log10 of the molar value.

Consider the worked cases shown below.
{"columns": ["Compound", "pIC50"],
 "data": [
  ["c1ccc(Nc2ncc3ccccc3n2)cc1", "< 5.00"],
  ["Nc1cccc(Nc2ncc3cc(Br)ccc3n2)c1", "< 5.00"],
  ["Fc1ccc(Nc2ncc3ccccc3n2)cc1", "< 5.00"],
  ["CN(C)c1cccc(Nc2ncnc3[nH]cnc23)c1", "< 5.00"],
  ["Brc1ccc2nc(Nc3ccccc3)ncc2c1", "< 5.00"]
]}

I have this compound here, CC(C)(C)C(=O)N(c1ccccc1)c1cccc(Nc2ncc3cc(Br)ccc3n2)c1 , and I need its recorded pIC50.
< 5.00

I have this compound here, CC(=O)Nc1cccc(Nc2ncnc3[nH]cnc23)c1 , and I need its recorded pIC50.
< 5.00

I have this compound here, CC(=O)Nc1cccc(Nc2ncc3cc(-c4cccc(N)c4)ccc3n2)c1 , and I need its recorded pIC50.
< 5.00

I have this compound here, CC(=O)Nc1cccc(Nc2ncc3ccccc3n2)c1 , and I need its recorded pIC50.
6.05

I have this compound here, c1ccc(Nc2ncnc3nc[nH]c23)cc1 , and I need its recorded pIC50.
< 5.00

I have this compound here, Cn1cc(-c2ccc3nc(Nc4cccc(N)c4)ncc3c2)cn1 , and I need its recorded pIC50.
< 5.00

I have this compound here, CN(C)c1cccc(Nc2nccc(NCCOc3ccccc3)n2)c1 , and I need its recorded pIC50.
5.70

---

molecular target: CYP3A4 (Homo sapiens); experiment: Inhibition of CYP3A4 (unknown origin) at 10 uM relative to control; type: ADME
Sequence (P08684 whole entry): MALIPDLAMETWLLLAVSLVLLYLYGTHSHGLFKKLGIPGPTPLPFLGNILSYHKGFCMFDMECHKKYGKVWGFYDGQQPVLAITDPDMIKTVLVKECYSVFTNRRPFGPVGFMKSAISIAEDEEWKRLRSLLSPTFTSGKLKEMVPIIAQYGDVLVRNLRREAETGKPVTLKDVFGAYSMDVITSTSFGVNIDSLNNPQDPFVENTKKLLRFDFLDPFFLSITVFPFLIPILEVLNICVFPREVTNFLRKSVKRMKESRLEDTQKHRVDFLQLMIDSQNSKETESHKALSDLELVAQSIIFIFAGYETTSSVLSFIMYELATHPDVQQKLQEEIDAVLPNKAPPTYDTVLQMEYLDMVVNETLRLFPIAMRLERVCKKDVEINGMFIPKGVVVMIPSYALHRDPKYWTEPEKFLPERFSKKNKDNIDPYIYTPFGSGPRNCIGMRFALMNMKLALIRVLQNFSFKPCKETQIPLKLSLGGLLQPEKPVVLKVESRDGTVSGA
inhibition at 10 µM reference
Supply the numeric figure in %, leaving out any unit text.

{"columns": ["Compound", "Unit Abbrev", "inhibition at 10 µM"],
 "data": [
  ["Nc1cccc(Nc2ncc3cc(-c4cn[nH]c4)ccc3n2)c1", "%", 52],
  ["CC(=O)Nc1cccc(Nc2ncc3cc(-c4cn[nH]c4)ccc3n2)c1", "%", 88]
]}

# evaluate next
I have this compound here, CC(=O)Nc1cccc(Nc2ncc3ccccc3n2)c1 , and I need its recorded inhibition at 10 µM.
-13

---

half-life reference
experiment: Stability in human liver microsomes; format: ADME, microsome; settings: read-out: Stability
Supply the numeric figure in min, leaving out any unit text.

{"columns": ["Compound", "half-life (min)"],
 "data": [
  ["Nc1cccc(Nc2ncc3cc(-c4cn[nH]c4)ccc3n2)c1", 29],
  ["CC(=O)Nc1cccc(Nc2ncc3cc(-c4cn[nH]c4)ccc3n2)c1", 42]
]}

I have this compound here, CC(=O)Nc1cccc(Nc2ncc3ccccc3n2)c1 , and I need its recorded half-life.
6

---

Biological target: CYP1A2 (Homo sapiens)
Sequence (P05177 whole entry): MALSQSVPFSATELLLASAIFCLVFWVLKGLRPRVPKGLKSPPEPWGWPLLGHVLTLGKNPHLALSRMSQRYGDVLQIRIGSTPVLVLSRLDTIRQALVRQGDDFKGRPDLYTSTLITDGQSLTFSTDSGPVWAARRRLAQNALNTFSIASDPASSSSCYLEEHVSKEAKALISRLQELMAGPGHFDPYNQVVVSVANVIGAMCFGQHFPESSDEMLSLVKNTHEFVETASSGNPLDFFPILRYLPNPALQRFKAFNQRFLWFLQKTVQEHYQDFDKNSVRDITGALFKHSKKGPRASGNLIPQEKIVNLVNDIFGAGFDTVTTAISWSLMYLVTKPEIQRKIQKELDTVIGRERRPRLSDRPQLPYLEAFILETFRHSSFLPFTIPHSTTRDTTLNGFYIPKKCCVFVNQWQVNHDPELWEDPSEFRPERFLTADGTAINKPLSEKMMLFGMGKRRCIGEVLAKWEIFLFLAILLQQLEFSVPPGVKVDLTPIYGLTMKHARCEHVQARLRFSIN
Assay: Inhibition of CYP1A2 (unknown origin) at 10 uM relative to control
Assay type: ADME
Measurement Name: inhibition at 10 µM
Quick note: unit goes after the number.

Consider the worked cases shown below.
{"columns": ["Compound", "inhibition at 10 µM"],
 "data": [
  ["CC(=O)Nc1cccc(Nc2ncc3cc(-c4cn[nH]c4)ccc3n2)c1", "49%"],
  ["CC(=O)Nc1cccc(Nc2ncc3ccccc3n2)c1", "94%"]
]}

# evaluate next
I have this compound here, Nc1cccc(Nc2ncc3cc(-c4cn[nH]c4)ccc3n2)c1 , and I need its recorded inhibition at 10 µM.
67%

---

half-life reference
assay: Stability in mouse liver microsomes; type: ADME, microsome; details: read-out: Stability
Supply the numeric figure in min, leaving out any unit text.

Consider the worked cases shown below.
{"columns": ["Compound", "Experimental Value"],
 "data": [
  ["CC(=O)Nc1cccc(Nc2ncc3cc(-c4cn[nH]c4)ccc3n2)c1", 2],
  ["Nc1cccc(Nc2ncc3cc(-c4cn[nH]c4)ccc3n2)c1", 2]
]}

I have this compound here, CC(=O)Nc1cccc(Nc2ncc3ccccc3n2)c1 , and I need its recorded half-life.
2

---

target: Mitogen-activated protein kinase kinase kinase 5 (Homo sapiens); test: Inhibition of stress-activated full length recombinant human N-terminal GST-tagged ASK1 expressed in baculovirus expression system using MKK6 as substrate pretreated for 10 mins followed by substrate addition by Alphascreen assay
pIC50: −log10 of the molar value.
Measurement Name: pIC50

Consider the worked cases shown below.
{"columns": ["Compound", "pIC50"],
 "data": [
  ["Fc1ccc(Nc2ncc3cc(Br)ccc3n2)cc1", "< 5.00"],
  ["Clc1cccc(Nc2ncc3ccccc3n2)c1", "< 5.00"],
  ["CC(=O)Nc1cccc(Nc2ncc3cc(Br)ccc3n2)c1", "< 5.00"],
  ["Nc1cccc(Nc2ncc3cc(-c4cn[nH]c4)ccc3n2)c1", 6.22],
  ["CC(=O)Nc1cccc(Nc2ncc3cc(-c4cn[nH]c4)ccc3n2)c1", 6.70],
  ["Clc1cccc(Nc2ncnc3[nH]cnc23)c1", "< 5.00"],
  ["Cn1cc(-c2ccc3nc(Nc4ccccc4)ncc3c2)cn1", "< 5.00"]
]}

I have this compound here, Nc1cccc(-c2ccc3nc(Nc4ccccc4)ncc3c2)c1 , and I need its recorded pIC50.
< 5.00
